Experiment: Caco-2 cell permeability assay
Format: in vitro ADME
Details: human, pH 7.4; Caco-2, Papp (B-A)/Papp (A-B); approximate values
Protocol: A Caco-2 cell permeability assay can be used for in vitro prediction of drug permeability and absorption, an important feature for a compound to be useful for methods described herein. The apparent permeability (Papp) of the compounds of the present disclosure were determined in Caco-2 cells to measure the rate of drug transport per surface area of the cell membrane. […]
value.kind: efflux ratio at 2 h, 10 µM

Let me know recorded efflux ratio at 2 h, 10 µM for CCn1cc(C(=O)O)c(=O)c2c(N)cc(N[C@@H]3C[C@H]3c3ccccc3)cc21 (relative stereo) [Compound I-59] , thanks.
0.58

Let me know recorded efflux ratio at 2 h, 10 µM for CCn1cc(C(=O)O)c(=O)c2c(N)c(F)c(NC3CCc4ccccc43)cc21 (stereo not shown) [Compound I-10] , thanks.
0.56

(a) CCn1cc(C(N)=O)c(=O)c2c(N)c(F)c(NCCc3ccccc3)cc21 [Compound I-66]
(b) CCn1cc(C(=O)O)c(=O)c2c(N)c(F)c(NCc3ccccc3)cc21 [Compound I-17]
Please indicate which item has the smaller measured efflux ratio at 2 h, 10 µM: a versus b State your choice using its label.
b
(b: 0.45, a: 58)
